Exercise: state measured TGI for each of the molecules provided.
tested on: OVCAR-4 ovarian; assay: NCI tumour cell line growth inhibition, 48 h

INPUT: State measured TGI of the molecule COc1cc(C2c3cc4c(cc3[C@@H](Nc3cccc(C(C)=O)c3)C3COC(=O)[C@H]23)OCO4)cc(OC)c1O (some centres not stated) with OVCAR-4 ovarian.
OUTPUT: > 100 µM

INPUT: Enter measured TGI, system OVCAR-4 ovarian, for the molecule shown: CC(C)CC1=[N+]=C(NC#N)N=C(CCC(=O)Nc2ccccc2[N+](=O)[O-])C1
OUTPUT: > 100 µM

INPUT: Using OVCAR-4 ovarian as the test system, report measured TGI of COc1cc([C@@H]2c3cc4c(cc3[C@@H](NC(=O)c3ccccc3)C3COC(=O)[C@@H]32)OCO4)cc(OC)c1O (some centres not stated) .
OUTPUT: > 100 µM

INPUT: Enter TGI (test system OVCAR-4 ovarian) for COc1ccc(-c2cc(-c3cc(OC)c(OC)c(OC)c3)cc(-c3cc4ccccc4oc3=O)n2)cc1
OUTPUT: 21.4 µM

INPUT: Enter TGI (test system OVCAR-4 ovarian) for Nc1cc(N)c(N)cc1N
OUTPUT: 3.35 µM

INPUT: Enter measured TGI, system OVCAR-4 ovarian, for the molecule shown: CNC(=O)c1[nH]cnc1/N=N/N(C)N
OUTPUT: > 100 µM

INPUT: Provide the reported TGI (system: OVCAR-4 ovarian) for COc1ccc(C(C#N)NNc2nc(C)cc(=O)[nH]2)cc1OC (configuration not stated)
OUTPUT: > 100 µM

INPUT: Using OVCAR-4 ovarian as the test system, report measured TGI of O=C(N/N=C\c1ccc2ccccc2c1)Nc1ccc([N+](=O)[O-])cc1 .
OUTPUT: > 70.2 µM

INPUT: Using OVCAR-4 ovarian as the test system, report measured TGI of O=[N+]([O-])c1ccc2nc(/C=C(\O)c3ccc(F)cc3)c(/C=C(\O)c3ccc(F)cc3)nc2c1 .
OUTPUT: > 100 µM

INPUT: Fetch value of TGI on OVCAR-4 ovarian for CC(=O)[O-].CC(=O)[O-].[NH2-].[Pt+2].c1ccc2cnccc2c1 .
OUTPUT: > 100 µM

INPUT: Answer with TGI of CCOc1ccc(NCc2cc(OC)c(OC)c(OC)c2)cc1 measured for OVCAR-4 ovarian.
OUTPUT: > 100 µM

INPUT: Please indicate recorded TGI of CCCCCCCCCCCCCC(=O)CBr measured with OVCAR-4 ovarian.
OUTPUT: 28.8 µM

INPUT: Name the value of TGI reported for COC(=O)/N=[N+](\[O-])C(c1ccc(OC)cc1)C1CCCCC1 (configuration not stated) when tested on OVCAR-4 ovarian.
OUTPUT: > 100 µM

INPUT: Find the measured TGI of C[C@H](O)C1CC(Cn2nnc3c(N)ncnc32)C1(C)C (some centres not stated) with OVCAR-4 ovarian as test system.
OUTPUT: > 100 µM

INPUT: State TGI on OVCAR-4 ovarian. Entry: Cc1nc2ccccc2c(=O)[nH]1
OUTPUT: > 100 µM

INPUT: Consider the molecule C=C1CC[C@@H]2[C@](C)(COC(C)=O)[C@H](OC(C)=O)CC[C@@]2(C)[C@@H]1CC(Nc1ccc(S(=O)(=O)Nc2nccc(C)n2)cc1)C1=CCOC1=O (some centres not stated) tested on OVCAR-4 ovarian; state its TGI.
OUTPUT: 15.8 µM

INPUT: Answer with TGI of CCC(C)C(=O)c1c(O)c(C/C=C(\C)CCC=C(C)C)c(O)c2c(C(O)CC)cc(=O)oc12 (configuration not stated) measured for OVCAR-4 ovarian.
OUTPUT: 10.5 µM

INPUT: Give the observed TGI of CN(C)Cc1cc(N=Nc2ccccc2)cc(CN(C)C)c1O for OVCAR-4 ovarian.
OUTPUT: > 100 µM

INPUT: Specify TGI for COc1cc[n+](C)cc1 , system OVCAR-4 ovarian.
OUTPUT: > 100 µM

INPUT: Look up OVCAR-4 ovarian data: TGI of CC(=O)Nc1ccc2[nH]c(-c3cccc(F)c3)cc(=O)c2c1 , then report it.
OUTPUT: > 29.5 µM

INPUT: Give OVCAR-4 ovarian TGI for the following molecule: c1cc2c(c(-c3c4ccccc4nc4ccccc34)c1)CC1(CC2)OCCO1
OUTPUT: > 100 µM

INPUT: Fill in: TGI on OVCAR-4 ovarian, entry CNC1=CC(=O)C2=C(C1=O)[C@H]1CC[C@]3(C)C(=O)CC[C@H]3[C@@H]1CC2
OUTPUT: 37.4 µM

INPUT: Report TGI on OVCAR-4 ovarian for this entry: C[Si](C)(OCCS(=O)(=O)O)C1S(=O)(=O)OCCOS1(=O)=O
OUTPUT: > 100 µM

INPUT: Retrieve TGI on OVCAR-4 ovarian; query C#CC[C@@H]1C[C@]2(C)[C@H]3CC=C4[C@H]5CC(C)(C)CC[C@]5(C(=O)NCCCCN)CC[C@@]4(C)[C@]3(C)CC[C@H]2C(C)(C)[C@H]1OC(C)=O
OUTPUT: 3.23 µM

INPUT: With OVCAR-4 ovarian as the test system, provide measured TGI for this molecule: C[C@@H]1COCCN1c1cc(C2(S(C)(=N)=O)CC2)nc(-c2ccnc3[nH]ccc23)n1 (some centres not stated)
OUTPUT: 23.7 µM

INPUT: Tell me TGI of COc1ccc(NC(=O)c2cc(OC)c(OC)c(OC)c2)cc1 when tested on OVCAR-4 ovarian.
OUTPUT: > 100 µM

INPUT: With OVCAR-4 ovarian as the test system, provide measured TGI for this molecule: CC(C)CCn1c(=O)c2c(=O)[nH][nH]c2c2ccccc21
OUTPUT: > 100 µM

INPUT: Using OVCAR-4 ovarian as the test system, report measured TGI of CC1S(=O)(=O)OCCOS1(=O)=O .
OUTPUT: > 100 µM

INPUT: For OVCAR-4 ovarian, give the measured TGI of the entry N[C@H](C(=O)O)[C@H](Cl)CC(=O)O
OUTPUT: > 100 µM

INPUT: # assay system OVCAR-4 ovarian: give TGI of CN=S(=O)(c1ccccc1)c1ccccc1
OUTPUT: > 100 µM

INPUT: Give TGI for O=C1CCCCc2cccc(O)c21 tested on OVCAR-4 ovarian.
OUTPUT: > 100 µM

INPUT: Give TGI for CN(C)c1ccc(/C=C/C=C(/C#N)c2ccccc2)cc1 tested on OVCAR-4 ovarian.
OUTPUT: > 65.8 µM
